Target: human TPO receptor (hTPOR) (Homo sapiens, UniProt P40238)
Construct: expressed in transfected cells; host or cells: BaF-B03 (murine IL-3 dependent cell line)
Sequence (P40238 26-635): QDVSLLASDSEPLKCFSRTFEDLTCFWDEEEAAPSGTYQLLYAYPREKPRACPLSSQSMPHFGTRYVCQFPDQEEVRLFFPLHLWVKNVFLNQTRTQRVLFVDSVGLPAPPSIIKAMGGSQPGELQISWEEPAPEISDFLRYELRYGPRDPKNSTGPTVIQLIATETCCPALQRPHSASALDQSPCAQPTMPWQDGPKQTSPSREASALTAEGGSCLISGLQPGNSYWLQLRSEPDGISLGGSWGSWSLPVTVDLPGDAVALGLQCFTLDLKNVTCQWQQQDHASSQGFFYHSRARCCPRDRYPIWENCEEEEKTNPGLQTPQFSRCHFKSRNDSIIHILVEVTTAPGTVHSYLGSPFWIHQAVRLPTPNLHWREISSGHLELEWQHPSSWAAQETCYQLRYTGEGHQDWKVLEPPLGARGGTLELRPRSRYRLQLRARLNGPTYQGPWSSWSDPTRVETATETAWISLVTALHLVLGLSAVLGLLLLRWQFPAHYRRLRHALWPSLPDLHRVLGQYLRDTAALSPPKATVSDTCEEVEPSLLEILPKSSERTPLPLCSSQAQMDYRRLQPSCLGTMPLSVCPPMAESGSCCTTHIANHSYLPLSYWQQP
Test: Thrombopoietic activity: proliferation of TPO dependent BaF/hTPOR cells (WST-1, absorbance at 450 nm)
Assay type: cell-based
Conditions: 20 h + 4 h WST-1, ED50 = half concentration of the concentration showing the maximum thrombopoietic activity, Table 1
pEC50: −log10 of the molar value.
measure: pEC50

If you can, please state the reported pEC50 value of CCCc1cccc2c1OCc1sc(NC(=O)c3cc(Cl)c(/C=C(\C)C(=O)O)c(Cl)c3)nc1-2 [Compound A1311] . 8.05

(P) CCCCOCc1cccc(-c2csc(NC(=O)c3cc(Cl)c(/C=C(\C)C(=O)O)c(Cl)c3)n2)c1OC [Compound B1995]
(Q) CCCCCOC(CCC)c1cccc(-c2csc(NC(=O)c3cc(Cl)c(C=C(C)C(=O)O)c(Cl)c3)n2)c1F (centres unmarked) [Compound B80]
(R) CCCCCC(OC)c1cccc(-c2csc(NC(=O)c3cc(F)c(/C=C(\C)C(=O)O)c(F)c3)n2)c1OC (centres unmarked) [Compound B347]
(S) CCCCCCc1cccc2c1OCc1sc(NC(=O)c3cc(Cl)c(/C=C(\C)C(=O)O)c(Cl)c3)nc1-2 [Compound A1316]
Falling order of pEC50, please. The reply should contain the labels ordered as requested. Q, S, P, R

(a) CCC(CC)COCCCc1cccc(-c2csc(NC(=O)c3cc(F)c(/C=C(\C)C(=O)O)c(F)c3)n2)c1OC [Compound B1848]
(b) CCC(CC)COCc1cccc(-c2csc(NC(=O)c3cc(F)c(/C=C(\OC)C(=O)O)c(F)c3)n2)c1OC [Compound B2024]
(c) CCOCCCCOC(CC)c1cccc(-c2csc(NC(=O)c3cc(Cl)c(C=C(C)C(=O)O)c(Cl)c3)n2)c1F (centres unmarked) [Compound B65]
Falling order of pEC50, please. The reply should contain the labels ordered as requested. c, b, a
(c: 8.98, b: 8.00, a: 7.80)

(1) CCCCOC(C)c1cccc(-c2csc(NC(=O)c3cc(Cl)c(C=C(C)C(=O)O)c(Cl)c3)n2)c1F (centres unmarked) [Compound B98]
(2) COc1c(CCOCCCC(C)C)cccc1-c1csc(NC(=O)c2cc(F)c(/C=C(\C)C(=O)O)c(F)c2)n1 [Compound B1920]
(3) CCCOCCCc1cccc2c1OCc1sc(NC(=O)c3cc(Cl)c(/C=C(\C)C(=O)O)c(Cl)c3)nc1-2 [Compound A1123]
Please produce an ascending ranking of these molecules based on pEC50. The reply should contain the labels ordered as requested. 2, 3, 1
(2: 7.84, 3: 8.14, 1: 9.14)

---

Biological target: human TPO receptor (hTPOR) (Homo sapiens, UniProt P40238)
Construct: expressed in transfected cells; host or cells: BaF-B03 (murine IL-3 dependent cell line)
Test: Thrombopoietic activity: proliferation of TPO dependent BaF/hTPOR cells (WST-1, absorbance at 450 nm)
Type: cell-based
Conditions: 20 h + 4 h WST-1, ED50 = half concentration of the concentration showing the maximum thrombopoietic activity, Table 1
pEC50: −log10 of the molar value.
measure: pEC50

Item COc1c(CCOCCC(C)C)cccc1-c1csc(NC(=O)c2cc(F)c(/C=C(\C)C(=O)O)c(F)c2)n1 [Compound B1954] with human TPO receptor (hTPOR) (Homo sapiens, UniProt P40238) - pEC50? 7.89

(a) COc1c(COCC(C)(C)C)cccc1-c1csc(NC(=O)c2cc(Cl)c(/C=C(\C)C(=O)O)c(Cl)c2)n1 [Compound B2021]
(b) CCCCCOC(CCCC)c1cccc(-c2csc(NC(=O)c3cc(Cl)c(C=C(C)C(=O)O)c(Cl)c3)n2)c1F (stereo not shown) [Compound B70]
(c) CCC(CC)COCc1cccc(-c2csc(NC(=O)c3cc(Cl)c(/C=C(\C)C(=O)O)c(Cl)c3)n2)c1OC [Compound B2025]
Falling order of pEC50, please. The reply should contain the labels ordered as requested. b, c, a

Origin of values: patent US7601746B2
